# credit: PubChem BioAssay AID652054

- TESTED SYSTEM: D(3) dopamine receptor (Homo sapiens) (UniProt P35462)
- Sequence (P35462 whole entry, looked up): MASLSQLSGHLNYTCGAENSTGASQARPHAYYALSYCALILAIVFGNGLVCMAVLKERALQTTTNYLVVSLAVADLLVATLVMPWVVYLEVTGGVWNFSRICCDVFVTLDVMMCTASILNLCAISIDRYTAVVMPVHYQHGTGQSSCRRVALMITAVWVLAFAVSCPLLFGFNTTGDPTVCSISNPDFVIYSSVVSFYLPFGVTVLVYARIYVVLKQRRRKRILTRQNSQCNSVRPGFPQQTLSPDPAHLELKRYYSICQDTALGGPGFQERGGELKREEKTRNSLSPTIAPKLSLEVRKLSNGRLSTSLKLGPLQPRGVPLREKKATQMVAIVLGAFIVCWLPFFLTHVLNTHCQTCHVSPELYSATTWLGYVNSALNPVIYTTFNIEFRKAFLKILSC
- ASSAY METHOD TEXT: qHTS of D3 Dopamine Receptor Antagonist: qHTS; note: % is set by controls: 0 for no effect and ±100 for the full control effect
- MEASUREMENT SETUP: D3R cells, DiscoveRx beta-arrestin luminescence, antagonist mode
Screen size: about 360,000 compounds; about 9,100 (2.5%) were called active. Inconclusive results (about 4%) are left out. Cut-off read from the data, not from the text of the source: active = max response below about -50%; inconclusive = no clear call, values can overlap the other calls; inactive = above that. This is one part of a sample in which actives are shown more often than they occur.
Bench note: report the call from label 1 = active, label 0 = inactive

Some solved cases for reference:
Cc1nnc(OCC(=O)NCCC2=CCCCC2)c2ccccc12	label 1
C[C@H](CO)N1C[C@H](C)[C@H](CN(C)C(=O)c2ccncc2)OCc2ccccc2-c2c(n(C)c3ccccc23)C1=O	label 0
CCOc1ccc(C2/C(=C(/O)c3ccc4c(c3)CC(C)O4)C(=O)C(=O)N2CCCn2ccnc2)cc1 (stereo not given)	label 0

Inquiry: Would you mind telling me which call this test gave O=C(COc1ccc(Cl)cc1)NCCC1=CCCCC1 ?
Reply text: label 0

Inquiry: Could you please tell me the result logged for O=C(COc1cccc(-n2cnnn2)c1)NCCC1=CCCCC1 in this assay?
Reply text: label 0

====

- TESTED SYSTEM: D(3) dopamine receptor (Homo sapiens)
- ASSAY METHOD TEXT: qHTS of D3 Dopamine Receptor Antagonist: qHTS; note: % is set by controls: 0 for no effect and ±100 for the full control effect
- MEASUREMENT SETUP: D3R cells, DiscoveRx beta-arrestin luminescence, antagonist mode; hits give low values
Out of some 360,000 compounds screened, about 9,100 (2.5%) were called active. Not shown: some 4% with an inconclusive outcome. This excerpt belongs to a sample that is enriched for actives.
MEASUREMENT TYPE: max response, negative = inhibition (%)
Give your result in % as a bare value.

Illustrative cases are given below, each with its answer.
CCOc1ccc(CCN2C(=O)c3cccnc3C2=O)cc1OCC	-22
Cc1ccc(C(=O)N[C@H](C(=O)N2CCN(c3ncccn3)CC2)C(C)C)cc1	0
CC(C)Oc1ccc(CN2CCC2(C)C(=O)NCc2ccc(C(F)(F)F)cc2)cc1 (centres undefined)	30.5
COC(=O)[C@]12CCCCC=C1N(Cc1ccco1)C(=O)[C@H](CC(=O)NCC1CCCCC1)C2	-0.188

For the next question, use this molecule.
Inquiry: Input Cc1cccc(N(C(=O)Cn2nnc(-c3ccc(C)o3)n2)C(C(=O)NC2CCCC2)c2ccncc2)c1 (centres undefined) , output reported max response, negative = inhibition.
Reply text: 12.8

====

- TESTED SYSTEM: D(3) dopamine receptor (Homo sapiens) (UniProt P35462)
- ASSAY METHOD TEXT: qHTS of D3 Dopamine Receptor Antagonist: qHTS; note: % is set by controls: 0 for no effect and ±100 for the full control effect
- MEASUREMENT SETUP: D3R cells, DiscoveRx beta-arrestin luminescence, antagonist mode
The whole screen tested about 360,000 compounds, of which about 9,100 (2.5%) were called active. Inconclusive results (about 4%) are left out. No stated cut-off is given here; in the data, active means max response below about -50%; inconclusive means no clear call, values can overlap the other calls; inactive means above that. This is one part of a sample in which actives are shown more often than they occur.
Tick one outcome: TRUE for active, FALSE for inactive

Take a look at these entries with their results.
COc1ccccc1C(c1nnnn1C(C)(C)C)N1CCN(Cc2ccccc2)CC1 (stereo not given)	TRUE
COc1ccc(S(=O)(=O)NC(=O)C2(C)CCN2C(=O)COc2ccc(Cl)cc2)cc1 (stereo not given)	FALSE
CCOCCCNCc1cc(Br)ccc1OCC	FALSE

Now, please, on to the next compound.
Inquiry: Which result was noted for this compound in the test: CC(=O)N1Cc2cc(C(=O)NCc3cccc(F)c3)nc(-c3cccc(C4=CCCC4)c3)c2[C@H]1CCO
Reply text: FALSE

====

- TESTED SYSTEM: D(3) dopamine receptor (Homo sapiens) (UniProt P35462)
- ASSAY METHOD TEXT: qHTS of D3 Dopamine Receptor Antagonist: qHTS; note: % is set by controls: 0 for no effect and ±100 for the full control effect
- MEASUREMENT SETUP: D3R cells, DiscoveRx beta-arrestin luminescence, antagonist mode
Out of some 360,000 compounds screened, about 9,100 (2.5%) were called active. Inconclusive results (about 4%) are left out. Rule as the data show it: active = max response below about -50%; inconclusive = no clear call, values can overlap the other calls; inactive = above that. What follows is part of a selection rich in actives, with near analogues and random picks from the rest.
Form entry, call: pick from true (1) = active, false (0) = inactive

Completed entries (count: 4):
O=C(CSc1c2c(nc3ccc(Cl)cc13)CCCC2)NCc1ccco1	true (1)
Cc1ccc(S(=O)(=O)N(CCCN(C)C)Cc2ccc3c(c2)OCO3)cc1	true (1)
Cc1ccc(N(C(=O)Cc2cccs2)C2C=CS(=O)(=O)C2)cc1Cl (stereo unspecified)	false (0)
O=C(CSc1nnnn1-c1ccccc1)NCc1ccco1	false (0)

Inquiry: # lookup: test call for COC(=O)c1ccc2nc(-c3ccc(C)cc3)c(Cc3ccc(OC)cc3C)n2c1
Reply text: false (0)

Inquiry: Look up the recorded call for Cc1ccc(-c2nc(CS(=O)(=O)CC(=O)NCc3ccc4c(c3)OCO4)c(C)o2)cc1 in this test.
Reply text: false (0)

Inquiry: I'd appreciate the recorded outcome for Cc1ccc(N(C(=O)c2ccc(S(=O)(=O)N(C)C)cc2)C2C=CS(=O)(=O)C2)cc1 (stereo unspecified) from this test.
Reply text: false (0)

Inquiry: Give the logged outcome of this assay for the following molecule: O=C(NCc1ccco1)C1(c2ccc(Cl)cc2)CCCC1
Reply text: false (0)

Inquiry: Please state the recorded outcome for this molecule: CCCC(=O)N1CCC1(C)C(=O)NS(=O)(=O)c1ccc(Cl)cc1 (stereo unspecified)
Reply text: false (0)

Inquiry: // return assay outcome for CCCCCCNS(=O)(=O)c1ccccc1Br
Reply text: false (0)

Inquiry: Could you please tell me the result logged for Cc1ccc(CNCc2ccc3c(c2)OCO3)c(C)c1 in this assay?
Reply text: false (0)

====

- TESTED SYSTEM: D(3) dopamine receptor (Homo sapiens) (UniProt P35462)
- ASSAY METHOD TEXT: qHTS of D3 Dopamine Receptor Antagonist: qHTS; note: % is set by controls: 0 for no effect and ±100 for the full control effect
- MEASUREMENT SETUP: D3R cells, DiscoveRx beta-arrestin luminescence, antagonist mode; hits give low values
The campaign covered roughly 360,000 compounds. About 9,100 (2.5%) were called active. Not shown: some 4% with an inconclusive outcome. Only a selection was taken, and actives are over-represented in it overall.
MEASUREMENT TYPE: max response, negative = inhibition (%)
# number only, unit % dropped from output

Example entries and their recorded answers appear below.
CN=C1C=C/C(=N/N=c2\ccn(O)cc2C)C=C1C	-67.8
COc1ccc(C(c2nnnn2C2CCCCC2)N2CCN(c3ccccc3F)CC2)cc1 (centres undefined)	-13.2
COc1cc(C(O)c2nc(-c3cnn(C)c3)cs2)ccc1F (centres undefined)	-2.22
CC1(C(=O)Nc2ccc3c(c2)OCCO3)CN(S(C)(=O)=O)CC(=O)N1Cc1cccc(F)c1 (centres undefined)	3.16
CC1(Cc2cccc(C#N)c2)C(=O)Nc2ccc(-c3cccc(C(F)(F)F)c3)cc21 (centres undefined)	19.7
CC(C)c1ccc(CC(=O)N2CCC2(C)C(=O)NS(=O)(=O)c2ccc(C(C)(C)C)cc2)cc1 (centres undefined)	22.2

Inquiry: Look up max response, negative = inhibition of FC(F)(F)Oc1ccccc1C(c1nnnn1C1CCCCC1)N1CCN(C/C=C/c2ccccc2)CC1 (centres undefined) and report it.
Reply text: -77.9

Inquiry: Give me measured max response, negative = inhibition, please, for this compound: COc1cc(CCN=Cc2ccccc2O)c([N+](=O)[O-])cc1OC
Reply text: 2.41

Inquiry: Identify the reported max response, negative = inhibition for the following entry. Cn1c(=O)c2cc(NC(=O)NCCc3cccs3)ccc2n1Cc1cccc(C(F)(F)F)c1
Reply text: 18.7

====

- TESTED SYSTEM: D(3) dopamine receptor (Homo sapiens) (UniProt P35462)
- ASSAY METHOD TEXT: qHTS of D3 Dopamine Receptor Antagonist: qHTS; note: % is set by controls: 0 for no effect and ±100 for the full control effect
- MEASUREMENT SETUP: D3R cells, DiscoveRx beta-arrestin luminescence, antagonist mode
Screen size: about 360,000 compounds; about 9,100 (2.5%) were called active. Not shown: some 4% with an inconclusive outcome. No stated cut-off is given here; in the data, active means max response below about -50%; inconclusive means no clear call, values can overlap the other calls; inactive means above that. The sample holds actives, similar compounds and a random draw of the others, so the mix is not that of the screen.
Please answer using one outcome listed in T = active, F = inactive

Known results for molecules:
CCn1c(O)c(N=NC2=NC(=O)CS2)c2cc(C)ccc21	T
COCCCNc1ccn2nc(-c3ccc(CC(C)C)cc3)cc2n1	F
CC(C)CNC(=O)COC(=O)/C=C/c1ccccc1[N+](=O)[O-]	F
COC(=O)[C@@]12C[C@@H](CC(=O)NCCCCc3ccccc3)C(=O)N(Cc3ccccc3)C1=CCC(C)(C)C2	F
COC(=O)Cn1c2ccc(C)cc2c2nc(C)sc21	F
COc1ccc(NC(=O)CCCC2CCCCC2)c(OC)c1	F
Cc1cc(C)n(-c2ccc3nncn3n2)n1	F
COc1cccc(C(O)c2ncc(-c3ccc4ccccc4c3)[nH]2)c1 (stereo not drawn)	F
CCOC(=O)C1CCCN(C(=O)/C=C/c2ccc(OC)cc2)C1 (stereo not drawn)	F
Cc1cccc(-c2cnc(C(O)c3cc(C)cc(C)c3)[nH]2)c1 (stereo not drawn)	F

Inquiry: What did the test return for COc1ccc(OC)c(NC(=O)CC(Cc2ccccc2OC)C(=O)O)c1 (stereo not drawn) ?
Reply text: F

Inquiry: Outcome? COc1cc(CN2CC(C)CC(C)C2)cc([N+](=O)[O-])c1O (stereo not drawn)
Reply text: F

Inquiry: Per the records of this test, what outcome belongs to CNCC(O)CN1CCN(c2ccccc2OC)CC1 (stereo not drawn) ?
Reply text: F

Inquiry: # fetch the recorded call for COc1ccc(OC)c(NC(=O)CCN2CCC(C)CC2)c1 here
Reply text: T

Inquiry: Look up the recorded call for COc1ccc(CN2CCN(Cc3ccc(OC)c(OC)c3OC)CC2)cc1 in this test.
Reply text: F

Inquiry: Please let me know the test result on file for CCOC(=O)N1CCN(CCC(=O)Nc2cc(OC)ccc2OC)CC1 .
Reply text: F

Inquiry: Per the records of this test, what outcome belongs to C[C@H](NC(=O)CC[C@H]1O[C@@H](n2ccc(=O)[nH]c2=O)[C@H](O)[C@@H]1O)c1cccc2ccccc12 ?
Reply text: F

Inquiry: Each molecule tested received a call. Report the one for CCOc1ccccc1NC(=O)CCN1CCN(S(=O)(=O)c2ccc(OC)cc2)CC1 .
Reply text: F

Inquiry: Recorded test outcome, item COc1ccc(N2CCN(CCNC(=O)Nc3cc(Cl)ccc3Cl)CC2)cc1
Reply text: F

Inquiry: For Cc1cccn2c(=O)c3cc(C(=O)NC4CCCCC4)sc3nc12 , what call appears in the results of this test?
Reply text: F

Inquiry: Answer briefly: the call reported for CCOc1ccccc1NC(=O)Nc1cc(OC)ccc1OC in this assay.
Reply text: T

Inquiry: Name the outcome recorded for CN(C)CC/C=C1\c2ccccc2CSc2ccccc21 in the assay.
Reply text: T

Inquiry: What classification did COCc1cc(C)nc2sc(C(=O)NC3CCCCC3)c(N)c12 end up with in this test?
Reply text: T
